Target: Recombinant human cathepsin A (Homo sapiens, UniProt P10619)
Construct: Recombinant human cathepsin A (residues 29-480, with a C-terminal 10-His tag); 10-His (C); purchased R&D Systems 1049-SE
Sequence (P10619 29-312 limits assumed): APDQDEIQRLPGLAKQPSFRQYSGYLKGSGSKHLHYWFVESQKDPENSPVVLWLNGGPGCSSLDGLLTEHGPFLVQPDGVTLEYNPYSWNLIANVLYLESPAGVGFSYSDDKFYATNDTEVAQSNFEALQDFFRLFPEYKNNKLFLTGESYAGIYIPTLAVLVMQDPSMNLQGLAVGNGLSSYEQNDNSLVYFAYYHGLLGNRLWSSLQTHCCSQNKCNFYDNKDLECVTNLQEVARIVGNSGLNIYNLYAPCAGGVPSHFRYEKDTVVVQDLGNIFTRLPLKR
Sequence (P10619 327-480 limits assumed): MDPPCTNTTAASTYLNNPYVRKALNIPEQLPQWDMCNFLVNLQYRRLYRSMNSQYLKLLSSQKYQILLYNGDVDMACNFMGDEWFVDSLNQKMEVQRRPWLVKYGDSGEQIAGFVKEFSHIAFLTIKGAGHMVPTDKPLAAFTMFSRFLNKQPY
Assay: Cathepsin A inhibitory activity
Format: biochemical
Conditions: recombinant human cathepsin A; read-out: Activity (2): Cathepsin A inhibitory activity, IC50 class
From the text: a) Cathepsin A Inhibitory Activity Recombinant human cathepsin A (residues 29-480, with a C-terminal 10-His tag; R&D Systems, #1049-SE) was proteolytically activated with recombinant human cathepsin L (R&D Systems, #952-CY). […] Uncleaved substrate and product were then separated by a microfluidic capillary electrophoresis on a LabChip® 3000 Drug Discovery System (12-Sipper-Chip; Caliper Life Sciences) and quantified by determination of the respective peak areas. […]
pIC50: −log10 of the molar value.
readout.label: pIC50

Worked cases, pIC50 given:
If you can, please state the reported pIC50 value of O=C(O)CC(NC(=O)c1cc(O)n(-c2cccc(Cl)c2)n1)c1cc(F)ccc1Cl (centres unmarked) . 6.00 to 7.00

Dear colleague, I am looking for the recorded pIC50 of the following compound: O=C(O)C[C@H](NC(=O)c1cc(O)n(-c2ccc(Cl)cc2)n1)c1ccccc1Cl 6.00 to 7.00

Recorded pIC50 of COc1cc(C(=O)N[C@@H](CC(=O)N[C@@H](C)C(C)(C)C)c2ccccc2C)nn1-c1ccccc1F , please. 4.52 to 6.00

Given the compound COc1cc(C(=O)N[C@@H](CC(=O)Nc2cc(C)[nH]n2)c2ccccc2C)nn1-c1ccccc1F , what is its reported pIC50? 4.52 to 6.00

Others:
Recorded pIC50 of O=C(O)CC(NC(=O)c1cc(O)n(-c2ccccc2)n1)c1cccc2c1OC(F)(F)O2 (centres unmarked) , please. 6.00 to 7.00

====

target: Recombinant human cathepsin A (Homo sapiens); construct: Recombinant human cathepsin A (residues 29-480, with a C-terminal 10-His tag); 10-His (C); purchased R&D Systems 1049-SE; assay: Cathepsin A inhibitory activity; format: biochemical; conditions: pharmacological test "Cathepsin A inhibitory activity"; IC50 given as class A/B/C; read-out: Activity (2): Cathepsin A inhibitory activity, IC50 class
pIC50: −log10 of the molar value.
readout.label: pIC50

These solved cases illustrate the format of a correct answer.
Suppose we examine the compound O=C(O)CC(NC(=O)c1cc(O)n(-c2ccccc2)n1)c1cccc(Cl)c1Cl (stereo not shown) ; what pIC50 value has been reported? 6.00 to 7.00

GET /values?readout=pIC50&item= COc1cccc([C@H](CC(=O)O)NC(=O)c2cc(O)n(-c3ccc(F)cc3F)n2)c1OC 6.00 to 7.00

Item under review: COc1ccc(C(CC(=O)O)NC(=O)c2cc(O)n(-c3ccccc3)n2)c(OC)c1 (stereo not shown) . Reported pIC50? 4.52 to 6.00

Value lookup for pIC50; key = CCc1ccc(C(CC(=O)O)NC(=O)c2cc(O)n(-c3ccccc3Cl)n2)cc1 (stereo not shown) 6.00 to 7.00

For the compound COc1ccc([C@H](CC(=O)O)NC(=O)c2cc(O)n(-c3ccccc3)n2)cn1 , what pIC50 is on record? 6.00 to 7.00

Next:
Entry Cc1cc(F)ccc1C(CC(=O)O)NC(=O)c1cc(O)n(-c2ccc(F)cc2F)n1 (stereo not shown) has what pIC50? > 7.00

I am curious: what pIC50 value has been reported for O=C(O)C[C@H](NC(=O)c1cc(O)n(-c2ccc(F)cc2F)n1)c1cccc(Cl)c1 ? 6.00 to 7.00

Given the compound COc1ccc(C(CC(=O)O)NC(=O)c2cc(O)n(-c3cccc(Cl)c3)n2)c(C)c1 (stereo not shown) , what is its reported pIC50? 6.00 to 7.00
